Quick reference for relative binding affinity among some compounds
- System: estrogen receptor (rat uterine cytosol)
- protocolNotes: DSSTox (NCTRER) National Center for Toxicological Research Estrogen Receptor Binding Database;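 further: ratio of estradiol IC50 over compound IC50 times 100 so estradiol equals 100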
- statedConditions: rat uterine cytosol ER competitive binding, RBA; ChemClass_ERB: Biphenyls PCBs; stronger effect = higher value
Results filed as inconclusive are left out.
propertyLabel: relative binding affinity (%)

1) Oc1ccc(-c2cc(Cl)c(Cl)c(Cl)c2Cl)cc1 = 0.23
2) Oc1ccc(-c2cc(Cl)ccc2Cl)cc1 = 0.0363
3) Oc1c(Cl)cc(-c2cc(Cl)c(O)c(Cl)c2)cc1Cl = 0.00056
4) Clc1ccc(-c2ccccc2Cl)cc1 = 0.00024
5) Oc1ccc(-c2ccc(Cl)cc2)cc1 = 0.0066
6) Oc1ccc(-c2ccccc2)c(Cl)c1 = 0.00169
